# assay comment: Pharmacokinetic study of DH in rats after oral and intravenous administration (non-compartmental analysis)
# Assay type: in vivo, male Sprague–Dawley (SD) rats
# condition summary: male, Sprague-Dawley, rat, plasma, po, P.O. 19.2 mg/kg, n = 6, mean ± SD, read-out: MRT0–∞
measured property: MRT inf (h)
One number for each entry, in h.

What the record says about COc1cc2c(cc1OC)C(c1ccc(N(C)C)cc1)NCC2 (stereo not shown) [DH, N, N-dimethylaniline-heliamine] : MRT inf is 4.76

---

# assay comment: Metabolite identification of DH in rat plasma, urine, feces and rat liver microsomes by UHPLC-Q-Orbitrap MS/MS
# Format: in vivo
# Design: key: F*: feces; U*: urine; P*: plasma; LM*: Liver microsome
# condition summary: rat plasma
measured property: Rat and LM* (matrices in which DH or the metabolite was detected)

CN(C)c1ccc(-c2nccc3cc(O)c(O)cc23)cc1 [M6–A] :: F*
COc1cc2c(cc1OC)C(c1ccc(N)cc1)NCC2 (centres unmarked) [M2–B] :: P*, U*, LM*
CNc1ccc(C2NCCc3cc(OC)c(OC)cc32)cc1 (centres unmarked) [M4–C] :: P*, U*, LM*

---

# assay comment: Pharmacokinetic study of DH in rats after oral and intravenous administration (non-compartmental analysis)
# Format: in vivo, male Sprague–Dawley (SD) rats
# condition summary: male, Sprague-Dawley, rat, plasma, po, P.O. 19.2 mg/kg, n = 6, mean ± SD
measured property: Tmax (h)
One number for each entry, in h.

Just so you know, measured Tmax for COc1cc2c(cc1OC)C(c1ccc(N(C)C)cc1)NCC2 (stereo not shown) came out at 1.5

---

# assay comment: Pharmacokinetic study of DH in rats after oral and intravenous administration (non-compartmental analysis)
# Type: in vivo, male Sprague–Dawley (SD) rats
# condition summary: male, Sprague-Dawley, rat, plasma, po, P.O. 19.2 mg/kg, n = 6, mean ± SD, read-out: MRT0–t
measured property: MRT last (h)
Numbers only, in h.

Reported MRT last ( COc1cc2c(cc1OC)C(c1ccc(N(C)C)cc1)NCC2 (stereo not shown) ) = 4.07

---

# assay comment: Pharmacokinetic study of DH in rats after oral and intravenous administration (non-compartmental analysis)
# Type: in vivo, male Sprague–Dawley (SD) rats
# condition summary: P.O. 19.2 mg/kg, n = 6, mean ± SD
measured property: AUC0–∞ (ng·h/mL)
One number for each entry, in ng·h/mL.

Entry COc1cc2c(cc1OC)C(c1ccc(N(C)C)cc1)NCC2 (stereo not shown) , AUC0–∞ reported as 748

---

# assay comment: Pharmacokinetic study of DH in rats after oral and intravenous administration (non-compartmental analysis)
# Type: in vivo, male Sprague–Dawley (SD) rats
# condition summary: male, Sprague-Dawley, rat, plasma, iv, I.V. 1.9 mg/kg, n = 6, mean ± SD, read-out: MRT0–∞
measured property: MRT inf (h)
Numbers only, in h.

Per the record, COc1cc2c(cc1OC)C(c1ccc(N(C)C)cc1)NCC2 (stereo not shown) [DH, N, N-dimethylaniline-heliamine] has MRT inf of 3.56

---

# assay comment: Pharmacokinetic study of DH in rats after oral and intravenous administration (non-compartmental analysis)
# Assay type: in vivo, male Sprague–Dawley (SD) rats
# condition summary: male, Sprague-Dawley, rat, plasma, iv, 1.9 mg/kg, I.V. 1.9 mg/kg, n = 6, mean ± SD, read-out: Vd (apparent volume of distribution)
# Method: The Xinjiang Medical University (Xinjiang, China) provided twelve male Sprague–Dawley (SD) rats (weight 200 ± 20 g). The Animal Experimentation Ethics Committee of Xinjiang Medical University gave its approval to all animal experiments. […] Rat plasma samples were assessed for DH using a Thermo Fisher Scientific Q Exactive Plus Orbitrap MS and a Dionnex Ultimate 3000 RSL nano System (Thermo Fisher Scientific, Bremen, Germany). […]
measured property: Vd (L/kg)
Answers are plain numbers, in L/kg.

Please fill in: Vd reported for COc1cc2c(cc1OC)C(c1ccc(N(C)C)cc1)NCC2 (stereo not shown) [DH, N, N-dimethylaniline-heliamine] = 15.1
